Data credit: patent US20140356358A1

Task for the reader: assign each of the following binders its reported EC50.
Molecular target: T1, cynomolgus monkey FcRn (cynomolgus monkey, UniProt Q8SPV9 24-297; Q8SPW0 21-119, limits assumed)
T1 construct: also called Cynomolgus FcRn
T1 sequence (Q8SPV9 24-297 limits assumed, chain 1 of 2): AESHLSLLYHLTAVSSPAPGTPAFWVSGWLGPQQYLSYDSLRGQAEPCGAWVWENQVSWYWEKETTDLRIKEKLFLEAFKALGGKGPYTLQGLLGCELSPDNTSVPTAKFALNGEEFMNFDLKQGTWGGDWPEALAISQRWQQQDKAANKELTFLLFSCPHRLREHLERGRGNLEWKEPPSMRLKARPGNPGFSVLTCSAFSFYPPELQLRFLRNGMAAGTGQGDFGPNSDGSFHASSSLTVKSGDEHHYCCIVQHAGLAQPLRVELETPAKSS
T1 sequence (Q8SPW0 21-119 limits assumed, chain 2 of 2): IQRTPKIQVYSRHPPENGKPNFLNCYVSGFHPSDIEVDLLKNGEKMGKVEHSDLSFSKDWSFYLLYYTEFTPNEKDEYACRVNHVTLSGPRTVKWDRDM
Test: SPR competition pH 5.5

query: Which EC50 is listed for variant Fc-fragment Fc-5-60 (other, library L5 isolate) EPKSCDKTHTCPPCPAPELLGGPSVFLFPPKPKDTLMISRTPEVTCVVVDVSHEDPEVKFNWYVDGVEVHNAKTKPREEQYNSTYRVVSVLTVLHQDWLNGKEYKCKVSNKALPAPIEKTISKAKGQPREPQVYTLPPSRDELTKNQVSLTCLVKGFYPSDIAVEWESNGGCQKGWVFCGGGQPENNYKTTPPVLDSDGSFFLYSKLTVDKSRWQQGNVFSCSVMHEALHNHYTQKSLSLSPGK ?
result: 60 nM

query: variant Fc-fragment Fc-5-112 (other, soluble elsewhere) EPKSCDKTHTCPPCPAPELLGGPSVFLFPPKPKDTLMISRTPEVTCVVVDVSHEDPEVKFNWYVDGVEVHNAKTKPREEQYNSTYRVVSVLTVLHQDWLNGKEYKCKVSNKALPAPIEKTISKAKGQPREPQVYTLPPSRDELTKNQVSLTCLVKGFYPSDIAVEWESNGGCALYPTNCGGGQPENNYKTTPPVLDSDGSFFLYSKLTVDKSRWQQGNVFSCSVMHEALHNHYTQKSLSLSPGK ?
result: 49 nM

query: variant Fc-fragment Fc-5-1 (other, library L5 isolate; also called variant 5-1) EPKSCDKTHTCPPCPAPELLGGPSVFLFPPKPKDTLMISRTPEVTCVVVDVSHEDPEVKFNWYVDGVEVHNAKTKPREEQYNSTYRVVSVLTVLHQDWLNGKEYKCKVSNKALPAPIEKTISKAKGQPREPQVYTLPPSRDELTKNQVSLTCLVKGFYPSDIAVEWESNGGCGMPIEFCGGGQPENNYKTTPPVLDSDGSFFLYSKLTVDKSRWQQGNVFSCSVMHEALHNHYTQKSLSLSPGK ?
result: 2.3 nM
